Each recorded value in this set is attributed to the supplement of paper PMC9170038.

system: K4 kissing-loop RNA reporter; experiment: apparent KD of K4 kissing-loop reporter; higher = weaker reporter binding; conditions: Eterna round: R107; input ligand: FMN 200 uM;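 further: bound reporter read as fluorescence of individual clusters on recovered sequencing chips by microscopy, with normalized cluster intensities fitted with a binding model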
Below: a set of entries, each annotated with reported apparent KD of K4 kissing-loop reporter.
quantity_measured: apparent KD of K4 kissing-loop reporter

[
  {
    "biopolymer_sequence": "UUAGUCUAGAGAAGGAGCGAGUGAUGUUCGCAGCCCAAAUAAUAAUAAUAAUAAGGGCAUCCUCAGGUAGGUCGCUCUAGACAUU [AK5 Exc Arginine B]",
    "measurement_target": "K4 kissing-loop RNA reporter",
    "meas_value": "335 nM"
  },
  {
    "biopolymer_sequence": "AUUAUAUUGUGAAGGAGCGCGAAUAGCAGUGAUGUUGCUAUCAAACGAUAUAUUAUUUACACGCAGGUAGGUCGCACAAUAUAUA [JR_Nu_SSArginiB_Sub022]",
    "measurement_target": "K4 kissing-loop RNA reporter",
    "meas_value": "171 nM"
  },
  {
    "biopolymer_sequence": "AAUAACUAGUAUAUUUUUAAUAAUACAGAUACCAGUGAUAAUAAACACCCUUGGCAGCUGAUCGAGUGAUGUUCGUUUAUUUUAA [JR_SSTheophyA_Sub002]",
    "measurement_target": "K4 kissing-loop RNA reporter",
    "meas_value": "84 nM"
  },
  {
    "biopolymer_sequence": "AGAGGUCCCAGUGAUGUUGGUGCGUUUGGUCGAGGACCGGUACGGCCGCCACUCGUUCAUAGUAAGCCCUCUUUAGUGUUUCUAA [theeternabot_sameState_KL_Trp_A_9]",
    "measurement_target": "K4 kissing-loop RNA reporter",
    "meas_value": "544 nM"
  },
  {
    "biopolymer_sequence": "CAUAGACAAGUGAUGUUUGUCAUAACCGAAGGAGCGUCGUUGAAGACAGGUAGGUCGCGGAUUAAUUUAGAUUAUAUUCUUUUUA [JR_SSArginiA_Sub020]",
    "measurement_target": "K4 kissing-loop RNA reporter",
    "meas_value": "595 nM"
  },
  {
    "biopolymer_sequence": "AGGCCCGGCCGAAAGGCCGGGCCAAGAGAUACCAGCAGCGAAAGCUGCCCUUGGCAGCUCACUUAGUGAUGUUAAGAAUAGAACA [SS Theo A Tesla 1]",
    "measurement_target": "K4 kissing-loop RNA reporter",
    "meas_value": "538 nM"
  }
]
